# conditions used: buffer; pH 7.4; 200.0 µM
measured property: log10(solubility kinetic) (log10 of the value in µg/mL)

{"molecule": "O=C(NC1CCSc2ccccc21)c1ccccc1F (configuration not stated)", "log10(solubility kinetic)": 1.09}
{"molecule": "COc1ccc(Nc2ncc(F)c(N3CCOCC3)n2)cc1", "log10(solubility kinetic)": 0.58}
{"molecule": "CC(=O)Nc1ccc(S(=O)(=O)NC2CCCCCC2)cc1", "log10(solubility kinetic)": 1.55}
{"molecule": "O=c1c2cc(Cl)cc(Cl)c2nc2n1CCC2", "log10(solubility kinetic)": 1.54}
{"molecule": "COc1ccc(C2CC(=O)C(C=NCC(C)C)=C(O)C2)cc1 (configuration not stated)", "log10(solubility kinetic)": 1.61}
{"molecule": "O=C(CC1NCCN(Cc2ccccc2)C1=O)Nc1ccc(Cl)cc1 (configuration not stated)", "log10(solubility kinetic)": 1.67}
